test system: EW-18 (Ewing's Sarcoma); experiment: Bliss excess, mean over the matrix (fraction); higher = more synergy;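 also: after 72 h of two-drug dosing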
READOUT: Bliss excess
// return just the number, without any unit appended

Use these answered entries as a reference point.
Cc1cc2ncnn2cc1Nc1ncc2c(n1)n(C1CCOCC1)c(=O)n2C [AZD7648] + CN(C)CCCOc1ccc(-c2ccc3ncc4c(c3c2)n(C2CCOCC2)c(=O)n4C)cn1 [AZD0156] (first compound max 10 µM, 7x7, partner max 1 µM) ... -0.0268
CN(CCO)CC[C@H](CSc1ccccc1)Nc1ccc(S(=O)(=O)NC(=O)c2ccc(N3CCC([C@@H](O)c4ccccc4-c4ccc(Cl)cc4)CC3)cc2)cc1S(=O)(=O)C(F)(F)F [AZD4320] + Cn1cnc2c(F)c(Nc3ccc(Br)cc3Cl)c(C(=O)NOCCO)cc21 [Selumetinib] (first compound max 1 µM, 7x7, partner max 3 µM) ... 0.0109
Cn1cnc2c(F)c(Nc3ccc(Br)cc3Cl)c(C(=O)NOCCO)cc21 [Selumetinib] + C[C@@H]1COCCN1C2=NC(=NC(=C2)C3(CC3)[S@](=N)(=O)C)C4=C5C=CNC5=NC=C4 [AZD6738] (first compound max 10 µM, 7x7, partner max 10 µM) ... -0.0471

// lookup Bliss excess | system=EW-18 (Ewing's Sarcoma) | key= NC1(C(=O)N[C@@H](CCO)c2ccc(Cl)cc2)CCN(c2ncnc3[nH]ccc23)CC1 [Capivasertib] + Cn1cnc2c(F)c(Nc3ccc(Br)cc3Cl)c(C(=O)NOCCO)cc21 [Selumetinib] (first compound max 10 µM, 7x7, partner max 10 µM);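 also: after 72 h of two-drug dosing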
-0.0219

###

test system: MFE-319 (Endometrial Carcinoma); test: combination Emax (second highest fraction inhibited in the dose matrix, 72 h); higher = more inhibition; extreme values may be limits of the assay
READOUT: combination Emax

C=CCn1c(=O)c2cnc(Nc3ccc(N4CCN(C)CC4)cc3)nc2n1-c1cccc(C(C)(C)O)n1 [AZD1775] + O=C(c1cc(Cc2n[nH]c(=O)c3ccccc23)ccc1F)N1CCN(C(=O)C2CC2)CC1 [Olaparib] (first compound max 1 µM, partner max 10 µM) ... 0.619
CC(=O)Nc1cccc(-n2c(=O)n(C3CC3)c(=O)c3c(Nc4ccc(I)cc4F)n(C)c(=O)c(C)c32)c1 [Trametinib] + Cc1nc(-c2cn3c(n2)-c2ccc(-c4cnn(C(C)(C)C(N)=O)c4)cc2OCC3)n(C(C)C)n1 [Taselisib] (first compound max 1 µM, 7x7, partner max 10 µM) ... 0.799
Cn1cnc2c(F)c(Nc3ccc(Br)cc3Cl)c(C(=O)NOCCO)cc21 [Selumetinib] + C=CCn1c(=O)c2cnc(Nc3ccc(N4CCN(C)CC4)cc3)nc2n1-c1cccc(C(C)(C)O)n1 [AZD1775] (first compound max 10 µM, partner max 1 µM) ... 0.671
CN(C)CCCOc1ccc(-c2ccc3ncc4c(c3c2)n(C2CCOCC2)c(=O)n4C)cn1 [AZD0156] + O=C(c1cc(Cc2n[nH]c(=O)c3ccccc23)ccc1F)N1CCN(C(=O)C2CC2)CC1 [Olaparib] (first compound max 3 µM, partner max 3 µM) ... 0.193
NC1(C(=O)N[C@@H](CCO)c2ccc(Cl)cc2)CCN(c2ncnc3[nH]ccc23)CC1 [Capivasertib] + COc1nnc2ccc(N3CCC(c4ccc(OCCN5CCN(C)C(=O)[C@H]5C)cc4)CC3)nn12 [AZD5153] (first compound max 10 µM, 7x7, partner max 1 µM) ... 0.962

I have this compound here, Cn1cnc2c(F)c(Nc3ccc(Br)cc3Cl)c(C(=O)NOCCO)cc21 [Selumetinib] + CC(C)n1c(=O)n(C)c2cnc3cc(F)c(-c4ccc(OCCCN5CCCCC5)nc4)cc3c21 [AZD1390] (first compound max 10 µM, 7x7, partner max 0.3 µM) , and I need its recorded combination Emax.
0.154

For the compound C=CCn1c(=O)c2cnc(Nc3ccc(N4CCN(C)CC4)cc3)nc2n1-c1cccc(C(C)(C)O)n1 [AZD1775] + C[C@@H]1COCCN1C2=NC(=NC(=C2)C3(CC3)[S@](=N)(=O)C)C4=C5C=CNC5=NC=C4 [AZD6738] (first compound max 1 µM, partner max 10 µM) , what combination Emax is on record?
0.825

Measured values drawn from the supplement of paper PMC11061612 for this set.
